Data provenance: patent US9409952B2

Test: Metabolic stability in human hepatic microsome
Format: in vitro ADME
Details: human, microsomes, CL NADPH(+)
Positions of bridges follow the written chain, without caps; N, C: chain ends. Non-standard residues stand in square brackets, D forms with d. Residues, ends and D or L forms follow the SMILES beside them. *: point of attachment. NMeL = CN[C@@H](CC(C)C)C(=O)O; NMeA = CN[C@@H](C)C(=O)O; Piperidide = C1CCN(*)CC1; Sar = CNCC(=O)O
endpoint.label: microsomal CLint (µL/min/mg)
Respond numerically; units are µL/min/mg and should not be typed.

input: Answer with the recorded microsomal CLint for the molecule listed here: CC[C@H](C)[C@@H]1NC(=O)[C@H](Cc2ccccc2)NC(=O)[C@@H]2CCCN2C(=O)[C@H](CC(C)C)N(C)C(=O)[C@H](Cc2ccccc2)NC(=O)[C@H](CC(C)C)NC(=O)[C@H]([C@@H](C)O)NC(=O)[C@H](C)N(C)C(=O)[C@H](C(C)C)NC(=O)[C@H](C)NC(=O)C[C@@H](C(=O)N2CCCCC2)NC(=O)[C@H](CC(C)C)NC(=O)CN(C)C1=O [DP-21] (AV[NMeA]TLF[NMeL]PFI[Sar]LD-Piperidide; lactam N-13)
output: 25
